# testedTarget: Carboxypeptidase B2 (Homo sapiens)
# Sequence (Q96IY4 whole entry): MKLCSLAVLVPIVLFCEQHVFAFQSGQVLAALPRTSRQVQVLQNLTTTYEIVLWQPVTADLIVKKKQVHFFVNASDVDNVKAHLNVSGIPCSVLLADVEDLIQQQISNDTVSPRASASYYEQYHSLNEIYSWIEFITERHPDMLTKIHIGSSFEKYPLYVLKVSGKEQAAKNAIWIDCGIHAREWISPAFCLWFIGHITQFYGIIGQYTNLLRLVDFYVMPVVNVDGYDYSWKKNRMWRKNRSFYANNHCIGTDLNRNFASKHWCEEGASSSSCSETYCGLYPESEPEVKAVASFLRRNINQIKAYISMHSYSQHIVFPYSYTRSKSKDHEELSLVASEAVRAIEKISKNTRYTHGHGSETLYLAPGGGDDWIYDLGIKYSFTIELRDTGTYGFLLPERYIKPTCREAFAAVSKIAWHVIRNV
attributeMeasured: IC50 (µM)

>>> val("Nc1ncc(CC(C(=O)O)c2c[nH]cn2)cn1 (stereo not given)")
67
>>> val("Nc1cccc(CC(C(=O)O)c2cnc[nH]2)n1 (stereo not given)")
15
>>> val("CC(CN)CCC(C(=O)O)c1cnc[nH]1 (stereo not given)")
0.27
>>> val("CNCCCCC(C(=O)O)c1cnc[nH]1 (stereo not given)")
26
